# Test summary: solvent given as SMILES
# Test conditions: in O
Measured parameter: emission maximum (nm)

Past entries and their recorded results:
Compound	Observed result
Nc1ncc2nc[nH]c2n1	380
CCCCCn1c2ccc(S(=O)(=O)O)cc2c(=O)c2cc(S(=O)(=O)O)ccc21	431
CC1(C)C(/C=C/C=C/c2cc3ccc(O)cc3oc2=O)=[N+](CCCS(=O)(=O)[O-])c2ccc(S(=O)(=O)O)cc21	722
O=[N+]([O-])c1ccc(/C=C/c2cn(S(=O)(=O)c3ccccc3)c3ccccc23)cc1	540
O=C(O)C1=C/C(=C/C=[N+]2/c3cc(O)c(C[C@@H]4O[C@H](CO)[C@@H](O)C(O)[C@H]4O)cc3C[C@H]2C(=O)O)C[C@H](C(=O)O)N1 (stereo partly drawn)	641

1. CCNc1cc2oc3c/c(=[NH+]\CC)c(C)cc-3c(-c3ccccc3C(=O)OCC)c2cc1C
2. [NH3+]C(Cc1ccc(O)c(O)c1)C(=O)[O-] (stereo not drawn)
Compare reported emission maximum values for 1 and 2 . Which is lower? Lab note: record the label of whichever item you select.
2
(2: 318 nm, 1: 554 nm)

A. O=S(=O)([O-])c1cc(S(=O)(=O)Cl)ccc1C1=c2cc3c4c(c2Oc2c1cc1c5c2CCCN5CCC1)CCC[N+]=4CCC3
B. Nc1ccc2ccc(O)cc2c1
Thinking about recorded emission maximum values, which is higher, A or B ? Lab note: record the label of whichever item you select.
A

###

# Test summary: solvent given as SMILES
# Test conditions: in CN(C)C=O
Measured parameter: emission maximum (nm)

Compound	emission maximum, nm
c1ccc(N(c2ccccc2)c2ccc(-c3ccc4c(c3)C3(c5cc(-c6ccc(N(c7ccccc7)c7ccccc7)cc6)ccc5S4)c4ccccc4-c4ccccc43)cc2)cc1	421.13
COc1ccc(-c2ccc(-c3ccc(OC)cc3)c3nc(-c4ccccc4)c(-c4ccccc4)nc23)cc1	514
N#Cc1c2nc3ccccn3c2nc2c1nc1ccccn12	515
CCN1\C(=C/C=C/C=C/C2=[N+](CC)c3ccc4ccccc4c3C2(C)C)C(C)(C)c2c1ccc1ccccc21	702
Cc1cc2ccc(-c3cccc4cccc(-c5ccc6cc(C)c(=O)oc6c5)c34)cc2oc1=O	417
Nc1ccc(N2C(=O)c3ccc4c5ccc6c7c(ccc(c8ccc(c3c48)C2=O)c75)C(=O)N(c2ccc(O)cc2)C6=O)cc1	537
COCCOc1ccc(OCCOC)c(C=O)c1	425
Cc1ccc(-c2ccc(/C=C/c3cccn3C)cn2)nc1	493
CCC1=C(C)C2=C(c3c4ccccc4c(C)c4ccccc34)c3c(C)c(CC)c(C)n3[B-](F)(F)[N+]2=C1C	540

###

# Test summary: solvent given as SMILES
# Test conditions: in CO
Measured parameter: emission maximum (nm)

Compound	Observed result
Oc1ccccc1/C=N/c1ccc(Cn2cncn2)cc1	430

A. CC1(C)C(/C=C/C2=C(Cl)C(=C/C=C3/N(CCCCCC(=O)O)c4ccccc4C3(C)C)/CCC2)=[N+](CCCCCC(=O)O)c2ccccc21
B. CC1(C)CC(/N=C/c2ccc3ccc4cccc5ccc2c3c45)CC(C)(C)N1[O]
Thinking about recorded emission maximum values, which is higher, A or B ? Lab note: record the label of whichever item you select.
A

###

# Test summary: solvent given as SMILES
# Test conditions: in c1ccccc1
Measured parameter: emission maximum (nm)

Compound	Readout units	Observed result
CCC1=C(C)C(=O)n2c1cc1c(C)c(CCC(=O)O)c(C)n1c2=O	nm	480
COc1ccc(-c2cc(-c3ccc(C)cc3)nc3c(C#N)c(N4CCCC4)nc(N)c23)cc1	nm	513
Cc1ccc([C@@H]2C[C@](O)(c3ccccn3)C[C@](O)(c3ccccn3)[C@H]2C(=O)c2ccc(N(c3ccccc3)c3ccccc3)cc2)cc1	nm	466
CCC1(CC)c2cc(C=O)ccc2-c2ccc(N(C)C)cc21	nm	437
Cc1ccc(-c2cc(-c3ccccc3Cl)c3c(N)nc(N4CCCC4)c(C#N)c3n2)cc1	nm	512
O=C1OC(=O)c2ccc(N(c3ccccc3)c3c4ccccc4cc4ccccc34)c3cccc1c23	nm	560

P. Cc1nc2c(ccc3ccc(N(C)C)cc32)oc1=O
Q. COc1cccc(-n2c(-c3ccc(O)cc3)nc(C)c2C)c1
Compare reported emission maximum values for P and Q . Which is lower? Lab note: record the label of whichever item you select.
Q
(Q: 371 nm, P: 564 nm)

###

# Test summary: solvent given as SMILES
# Test conditions: in CCCCCCCCO
Measured parameter: emission maximum (nm)

Compound	emission maximum, nm
CN1CCN(c2ccc3c4c(cccc24)C(=O)c2ccccc2-3)CC1	626
Oc1cccc(/N=C/c2ccccc2Oc2ccccc2)c1	410
CCCCCCCCCCCCCCCCOc1cc(C#Cc2ccc3ccccc3c2)c(OCCCCCCCCCCCCCCCC)cc1C#Cc1ccc(C=C(C#N)C#N)cc1	596
COc1ccc2cc(-c3ccc(C(F)(F)F)cc3)oc(=O)c2c1	410
CCN(CC)c1cccc2c1ccc1c(=O)oc(-c3ccc(C(F)(F)F)cc3)cc12	561
FC(F)(F)c1ccc(/C=C/c2ccc(-c3nnc(-c4ccc(-c5cc6ccccc6s5)cc4)o3)cc2)cc1	394
CC1=CC(C)=[N+]2C1=Cc1c3ccccc3c(C#Cc3ccccc3)n1[B-]2(F)F	623
CCN(CC)c1ccc2c(C)cc(=O)oc2c1	443
c1ccc2sc(-c3ccc(-c4nnc(-c5ccc(-c6nnc(-c7ccc(-c8cc9ccccc9s8)s7)o6)cc5)o4)s3)cc2c1	399
COc1ccc(/C=C/c2ccc(-c3nnc(-c4ccc(-c5cc6ccccc6s5)cc4)o3)cc2)cc1	433
CCC1=C(C)C2=C(C)c3c(C)c(CC)c(C)n3[B-](F)(F)[N+]2=C1C	534.4

###

# Test summary: solvent given as SMILES
# Test conditions: in CC(C)=O
Measured parameter: emission maximum (nm)
Your answer is read as nm, so omit the unit and give the number.

Molecule	Readout units	emission maximum
O=c1[nH]c2ccccc2[nH]1	nm	307

Given the molecule CCN(CC)c1ccc2cc(-c3cc(SC)c(C#N)c(=O)o3)c(=O)oc2c1 , what is its reported emission maximum?
573

Given the molecule CN(C)c1ccc(/C=C/c2nc(/C=C/c3ccc(N(c4ccccc4)c4ccccc4)cc3)cc(/C=C/c3ccc(N(c4ccccc4)c4ccccc4)cc3)n2)cc1 , what is its reported emission maximum?
552

Given the molecule CCCCCCOc1ccc(N(c2ccc(OCCCCCC)cc2)c2ccc(-c3sc(-c4ccc(N(c5ccc(OCCCCCC)cc5)c5ccc(OCCCCCC)cc5)cc4)c4nc(-c5ccccc5)c(-c5ccccc5)nc34)cc2)cc1 , what is its reported emission maximum?
793

Given the molecule CCC1=C(C)C2=C(C)c3c(C)c(CC)c(C)n3[B-](F)(F)[N+]2=C1C , what is its reported emission maximum?
532

###

# Test summary: solvent given as SMILES
# Test conditions: in C1CCOC1
Measured parameter: emission maximum (nm)

Past entries and their recorded results:
Molecule	Readout units	emission maximum
COc1ccc(C(=Cc2ccc(C=O)cc2)c2ccc(OC)cc2)cc1	nm	396
CCCc1ccc2c(c1)cc1n2B2c3c4c-1cccc4cc1cccc(c31)-c1cc3cc(CCC)ccc3n12	nm	565
c1ccc(-n2c(-c3cccc4ccccc34)nc3c4cccc5ccc6cccc(c6c54)c32)cc1	nm	422.46
COC(=O)C(Cc1ccc2oc(-c3ccc(Nc4ccccc4)cc3)nc2c1)NC(=O)OC(C)(C)C (stereo not drawn)	nm	419.01
COc1cccc(OC)c1C1=C2C(C)=CC(C)=[N+]2[B-](F)(F)n2c(C)cc(C)c21	nm	520

I. CCOC(=O)C1=CN(c2ccccc2)C=C(C(=O)OCC)C1c1ccccc1
II. CCCCCOc1cc2oc(=O)c3c4ccc(N(c5ccc(C)cc5)c5ccc(C)cc5)cc4c4ccc5cccc6c(c1)c2c3c4c56
Compare reported emission maximum values for I and II . Which is lower? Lab note: record the label of whichever item you select.
I
(I: 412 nm, II: 605 nm)

1. COc1cccc2cc(-c3ccc([N+](=O)[O-])cc3)c(=N)oc12
2. O=C1c2cccc3c(-n4c5ccccc5c5ccccc54)ccc(c23)C(=O)N1c1ccccc1
Thinking about recorded emission maximum values, which is higher, 1 or 2 ? Lab note: record the label of whichever item you select.
2

###

# Test summary: solvent given as SMILES
# Test conditions: in C1CCOC1
Measured parameter: emission maximum (nm)

Compound	Readout units	emission maximum
CCN(CC)c1ccc([N+]2=Cc3ccc4c5c(ccc4c3O[B-]2(c2c(F)c(F)c(F)c(F)c2F)c2c(F)c(F)c(F)c(F)c2F)C=[N+](c2ccc(N(CC)CC)cc2)[B-](c2c(F)c(F)c(F)c(F)c2F)(c2c(F)c(F)c(F)c(F)c2F)O5)cc1	nm	714
c1ccc(-c2cc(-c3ccccc3)cc(-c3ccc4c(c3)C3(c5cc(-c6cc(-c7ccccc7)cc(-c7ccccc7)c6)ccc5-4)c4ccccc4-c4c3c3c5ccccc5ccc3c3ccccc43)c2)cc1	nm	420
F[B-]1(F)Oc2ccccc2-c2n(-c3ccc(C(F)(F)F)cc3)c(-c3ccccc3)c(-c3ccccc3)[n+]21	nm	390
CCOC(=O)COc1ccc(/C=C/C2=C3c4ccccc4C(c4[nH]c(C)cc4C)=[N+]3[B-](F)(F)n3c(C)cc(C)c32)cc1	nm	684
CC(C)CCC[C@@H](C)[C@H]1CC[C@H]2[C@@H]3CC=C4C[C@@H](OC(=O)Oc5cc(/C=C/C=C/c6ccc(N(C)C)cc6)ccc5[N+](=O)[O-])CC[C@]4(C)[C@H]3CC[C@]12C	nm	677
COc1ccc(-c2cc3c(cc2OC)-c2c(c4c(c5c2-c2cc(OC)c(-c6ccc(OC)cc6)cc2C5)C(=O)N(CCC(C)C)C4=O)C3)cc1	nm	493
COc1ccc(C(=Cc2ccc(/C=C(\C#N)c3ccccc3)cc2)c2ccc(OC)cc2)cc1	nm	510
O=C1c2ccccc2S(=O)(=O)c2ccc(-n3c4ccccc4c4ccccc43)cc21	nm	576
Cc1cc(C)c(C2=C3C=C(c4ccc(C(C)(C)C)cc4)C(c4ccc(C(C)(C)C)cc4)=[N+]3[B-](F)(F)n3c2cc(-c2ccc(C(C)(C)C)cc2)c3-c2ccc(C(C)(C)C)cc2)c(C)c1	nm	628
CCCCCCCCCCCCOc1cc2cc(N(C)C)ccc2cc1C=C(C#N)C#N	nm	576
COc1ccc([C@@H]2C[C@](O)(c3ccccn3)C[C@](O)(c3ccccn3)[C@H]2C(=O)c2ccc(N(c3ccccc3)c3ccccc3)cc2)cc1	nm	495
CN(C)c1ccc(/C=C/c2cc[n+](C)cc2)cc1	nm	590
CC1=[N+]2C(=C(c3ccc(C(=C(c4ccccc4)c4ccccc4)c4ccccc4)cc3)c3ccc(C)n3[B-]2(F)F)C=C1	nm	530
CN(C)c1ccc(/C=C/c2cc(/C=C/c3ccc(N(C)C)cc3)nc(/C=C/c3ccc(N(c4ccccc4)c4ccccc4)cc3)n2)cc1	nm	521
